Every entry's value here was drawn from patent US7786141B2.

Biological target: M4 muscarinic receptor (Homo sapiens, UniProt P08173)
Construct: expressed in transfected cells; host or cells: CHO (M4-CHO)
Sequence (P08173 1-479): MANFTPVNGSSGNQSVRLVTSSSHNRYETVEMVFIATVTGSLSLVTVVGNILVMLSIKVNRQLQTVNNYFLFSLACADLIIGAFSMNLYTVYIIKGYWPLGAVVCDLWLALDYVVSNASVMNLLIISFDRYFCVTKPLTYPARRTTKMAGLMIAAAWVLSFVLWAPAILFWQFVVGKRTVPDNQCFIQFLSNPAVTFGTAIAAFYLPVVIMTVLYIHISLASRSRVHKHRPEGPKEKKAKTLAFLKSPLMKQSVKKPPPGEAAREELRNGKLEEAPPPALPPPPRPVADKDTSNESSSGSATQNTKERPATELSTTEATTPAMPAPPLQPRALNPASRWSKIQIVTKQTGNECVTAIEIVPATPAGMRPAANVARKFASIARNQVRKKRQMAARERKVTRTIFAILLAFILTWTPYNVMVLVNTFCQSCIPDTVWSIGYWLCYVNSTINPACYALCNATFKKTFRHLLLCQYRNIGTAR
Assay: Functional mobilization of intracellular calcium (FLIPR) in M4-CHO cells
Type: cell-based
Conditions: Table 4; 100% efficacy is the maximum response obtained with the Carbachol control
READOUT LABEL: Emax

# example entries with known answers
## Task Provide Emax, recorded with M4 muscarinic receptor (Homo sapiens, UniProt P08173), of CC(=O)CN1CC2(CCN(C3CCCCC3)CC2)c2cc(F)ccc21 [compound 796]
## Result 25 to 100%

## Task Provide Emax, recorded with M4 muscarinic receptor (Homo sapiens, UniProt P08173), of CC(=O)CN1CCC(N2CCC3(CC2)CN(C(C)=O)c2ccc(F)cc23)CC1 [compound 697]
## Result < 25%

## Task Provide Emax, recorded with M4 muscarinic receptor (Homo sapiens, UniProt P08173), of CC(=O)NC1CC2(CCN(CC3CC4C=CC3C4)CC2)c2ccc(C)cc21 (centres unmarked) [compound 985]
## Result 25 to 100%

## Task Provide Emax, recorded with M4 muscarinic receptor (Homo sapiens, UniProt P08173), of CC(=O)N1CC2(CCN(C3CCN(c4nn[nH]n4)CC3)CC2)c2ccccc21 [compound 710]
## Result 25 to 100%

## Task Provide Emax, recorded with M4 muscarinic receptor (Homo sapiens, UniProt P08173), of CCOC(=O)N1CCC(N2CCC3(CC2)CN(C(C)=O)c2c(-c4ccncc4)cccc23)CC1 [compound 677]
## Result < 25%

## Task Provide Emax, recorded with M4 muscarinic receptor (Homo sapiens, UniProt P08173), of CCCOC(=O)N1CCC(N2CCC3(CC2)CN(C(C)=O)c2ccc(F)cc23)C1 (centres unmarked) [compound 632]
## Result < 25%

## Task Provide Emax, recorded with M4 muscarinic receptor (Homo sapiens, UniProt P08173), of CCOC(=O)N1C2CCC1CC(N1CCC3(CC(=O)c4cc(F)ccc43)C1)C2 (centres unmarked) [compound 980]
## Result 25 to 100%

Consider the record given below.
## Task Provide Emax, recorded with M4 muscarinic receptor (Homo sapiens, UniProt P08173), of CC(=O)N1CC2(CCN(CC3CCC(C)=CC3C)CC2)c2cc(F)ccc21 (centres unmarked) [compound 968]
## Result < 25%
